- Tested on: Stomoxys calcitrans (stable fly)
- PROTOCOL DETAILS: Adult stable fly test, serum-saturated dental wick
- Assay type: in vivo
- CONDITION: 100 ppm in bovine serum, readings at 24 and 48 hours, which one is reported is not stated
READOUT: Percentage of ASF killed at 100 ppm

Reference set (6 entries):
CC[C@H]1CCC[C@H](O[C@H]2CC[C@H](N(C)C)[C@@H](C)O2)[C@@H](C)C(=O)C2=C[C@H]3[C@@H]4C[C@H](O[C@@H]5O[C@@H](C)[C@H](OC)[C@@H](OC)[C@H]5OC)C[C@H]4CC[C@H]3[C@@H]2CC(=O)O1: 100%
CCOC1C(OC2CC3CCC4C5CC(=O)OC(CC)CCCC(OC6CCC(N(C)C)C(C)O6)C(C)C(=O)C5=CC4C3C2)OC(C)C(OC)C1OC (stereo not shown) [Example A7, 5,6-Dihydro-2'-O-ethyl Spinosyn H]: 100%
CC[C@H]1CCC[C@H](O[C@H]2CCC(=O)[C@@H](C)O2)[C@@H](C)C(=O)C2=C[C@H]3[C@@H]4C[C@H](O[C@@H]5O[C@@H](C)[C@H](OC)[C@@H](OC)[C@H]5OC)C[C@H]4[C@@H](Br)[C@H](Br)[C@H]3[C@@H]2CC(=O)O1 [Example F11a, (5R,6R)-5,6-dibromo-4''-keto Spinosyn A]: <50%
CC[C@H]1CCC[C@H](O[C@H]2CC[C@H](NC)[C@@H](C)O2)[C@@H](C)C(=O)C2=C[C@H]3[C@@H]4C[C@H](O[C@@H]5O[C@@H](C)[C@H](OC)[C@@H](OC)[C@H]5OC)C[C@H]4CC[C@H]3[C@@H]2CC(=O)O1 [Example F24, 5,6-Dihydro Spinosyn B]: 100%
CCCOC1C(OC)C(C)OC(OC2CC3CCC4C5CC(=O)OC(CC)CCCC(OC6CCC(N(C)C)C(C)O6)C(C)C(=O)C5=CC4C3C2)C1OC.CCCOC1C(OC)C(C)OC(OC2CC3CCC4C5CC(=O)OC(CC)CCCC(OC6CCC(N(C)C)C(C)O6)C(C)C(=O)C5=CC4C3C2)C1OC.O=C(O)CCCC(=O)O (stereo not shown): 100%
CCC1CCCC(OC2CCC(N(C)C)C(C)O2)C(C)C(=O)C2=CC3C4CC(OC5OC(C)C(OC)C(OC)C5OC)CC4[C@@H](Br)[C@H](Br)C3C2CC(=O)O1 (stereo partly drawn) [Example F14, (5R,6R)-5,6-Dibromo Spinosyn A]: 100%

Req: Name the recorded Percentage of ASF killed at 100 ppm for CCCOC1C(OC2CC3CCC4C5CC(=O)OC(CC)CCCC(OC6CCC(N(C)C)C(C)O6)C(C)C(=O)C5=CC4C3C2)OC(C)C(OC)C1OC (stereo not shown) [Example A8, 5,6-Dihydro-2'-O-n-propyl Spinosyn H] .
Resp: 100%
